- Tested on: COLO 205
- experiment: NCI tumour cell line growth inhibition, 48 h
Active and inactive are the calls of the source. Rule as the data show it: active = GI50 up to about 1.1 µM and inactive = higher.
So I've got a bunch of compounds here, and I need their GI50 values.

I have 2 compounds here; please give me GI50 for each one.
1. CC1(C)C=C(S(=O)(=O)c2ccccc2)Oc2ccccc2O1
2. Cc1ccc([S+]([O-])/C=C(\NC(=O)OCc2ccccc2)C(F)(F)F)cc1 (stereo unspecified)

["18.8 µM (inactive)", "58.6 µM (inactive)"]

---

- System: COLO 205
- experiment: NCI tumour cell line growth inhibition, 48 h
Activity calls are given as the source filed them. No stated cut-off is given here; in the data, active = GI50 up to about 1.1 µM and inactive = higher.
The reply should be one of these categories: True = active, False = inactive

{"compound": "CCN(CC)CCSc1nc2c(c(=N)n1-c1ccccc1)c(=S)n(-c1ccccc1)c(=S)n2-c1ccccc1", "class-assignment": "False"}
{"compound": "C[n+]1c(-c2ccc(/C=N\\N3CCN(/N=C/c4ccc(-c5cn6ccccc6[n+]5C)cc4)CC3)cc2)cn2ccccc21", "class-assignment": "False"}
{"compound": "Cc1ccccc1Nc1cn(COCc2ccccc2)c(=O)[nH]c1=O", "class-assignment": "False"}
{"compound": "FC(F)(F)c1cc(Cl)cnc1N/N=C(/c1ccccc1)c1ccccn1", "class-assignment": "False"}
{"compound": "CC(=O)C(N1CCCCC1)C(O)(C(F)(F)F)C(F)(F)F (centres undefined)", "class-assignment": "False"}
{"compound": "COc1cccc2c1C(=O)c1c(O)c3c(c(O)c1C2=O)C[C@@](O)(C(=O)CO)C[C@@H]3OC1CC(N)C(OC)C(C)O1 (some centres undefined)", "class-assignment": "True"}
{"compound": "Cc1cc(C)c2c(n1)S(=O)(=O)N(CCCN1CCN(c3cccc(C(F)(F)F)c3)CC1)C(C(=O)c1ccccc1)=C2O", "class-assignment": "False"}
{"compound": "C#CC1(O)CCC2C3CCc4cc(Oc5nc(F)nc(-c6c7ccccc7c7sc8ccccc8n67)n5)ccc4C3CC[C@@]21C (some centres undefined)", "class-assignment": "False"}

Recorded test call requested for O=[N+]([O-])/C(C(Cl)=C(Cl)Cl)=C(/Nc1ccccc1)Sc1ccccc1 False

How about this compound: COc1ccc(C2=C(Cl)c3cc(OC)c(OC)cc3C2Cl)cc1 (centres undefined) False

How about this compound: O=C(O)C/C(=C\c1ccccc1)C(=O)O False

How about this compound: CCC1=CCC(P(=O)(c2ccccc2)c2ccccc2)CC1C (centres undefined) False

---

- System: T47D
- experiment: NCI tumour cell line growth inhibition, 48 h
Calls of active or inactive are those of the source. No stated cut-off is given here; in the data, active = GI50 up to about 1.1 µM and inactive = higher.
The reply should be one of these categories: t (active), f (inactive)

Some solved cases for reference:
{"compound": "COc1cc2c(c(O)c1C)C(=O)C(Cl)=CC2=O", "class-assignment": "f"}
{"compound": "N#CCCN(CCN(C(=O)Nc1ccccc1)c1ccccc1)C(=O)Nc1ccccc1", "class-assignment": "f"}
{"compound": "CN(C)c1cccc(F)c1C(=O)NC(=O)Nc1ccc(Cl)cc1", "class-assignment": "f"}
{"compound": "C#CCn1c(=O)c(Cl)cn(/C(=C/C(=O)OCC)C(=O)OCC)c1=O", "class-assignment": "f"}
{"compound": "N#Cc1c(-c2ccccc2)c(C#N)c(=S)n(C2OC(CO)C(O)C(O)C2O)c1O (stereo unspecified)", "class-assignment": "f"}
{"compound": "O=[N+]([O-])/C(C(Cl)=C(Cl)Cl)=C(/Nc1ccccc1)Sc1ccccc1", "class-assignment": "f"}
{"compound": "CN(C)c1ccc(/C=C/C=c2/c3ccccc3n3c2cc(-c2ccccc2)[n+]3C)cc1", "class-assignment": "t"}
{"compound": "S=c1sc2ccccc2n1CN1CCN(Cc2ccccc2)CC1", "class-assignment": "f"}
{"compound": "CCCCCCN(CCCCCC)C(=S)N/N=C(\\C)c1ccccn1", "class-assignment": "t"}
{"compound": "CC1=NN(C(=O)c2ccc(Cl)cc2)C(=O)C1/N=N/c1ccc(S(=O)(=O)Nc2ncccn2)cc1 (stereo unspecified)", "class-assignment": "f"}

Recorded test call requested for O=C1CC(O)c2c(Cl)sc(Cl)c21 (stereo unspecified) f

How about this compound: Cc1ccc2nc3sc(=O)sc3nc2c1 [CHINOMETHIONAT] f

How about this compound: O=c1cc(/C=C/c2ccc(O)c(O)c2)cc(/C=C/c2ccc(O)c(O)c2)o1 f

How about this compound: Brc1ccc2nc(-c3cccs3)nc(N3CCN(c4ccccc4)CC3)c2c1 f

How about this compound: O=C1c2ccccc2-[n+]2ccc3c([nH]c4ccccc43)c21 [FASCAPLYSIN CHLORIDE] t

How about this compound: CCCCC/C=C1\CCC(CN2CCOCC2)C1=O (stereo unspecified) f

How about this compound: O=C([O-])C[n+]1ccccc1.c1ccncc1 f

How about this compound: CC(=N\N)/C(C)=N/N=C(C)/C(C)=N/N=C(C)/C(C)=N/N=C(C)/C(C)=N/N f

How about this compound: O=C1C2Cc3c(n(C(=O)c4ccccc4)c4ccccc34)CC2C(=O)N1c1ccc(Nc2ccc(N3C(=O)C4Cc5c(n(C(=O)c6ccccc6)c6ccccc56)CC4C3=O)cc2)cc1 (stereo unspecified) f

How about this compound: O=C1N[C@H]2c3c(Cl)sc(Cl)c3[C@@H](O)[C@H]2O1 f

How about this compound: CN(C)CCCN1c2ccc3ccccc3c2Sc2cccc(Cl)c21 f
